- tested_target: WHRN PDZ1 (UniProt Q9P202)
- Sequence (Q9P202 136-239): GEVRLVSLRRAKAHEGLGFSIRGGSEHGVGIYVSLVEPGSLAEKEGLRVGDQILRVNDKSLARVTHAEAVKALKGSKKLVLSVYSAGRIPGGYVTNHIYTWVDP
- procedure_details: ITC; MicroCal iTC200, 25 °C; 50 mM tris pH 7.5-8.0, 300 mM NaCl, 1 mM DTT, 1 mM EDTA; cell 20–50 µM, syringe 400–800 µM; one-site binding model
assay_readout: Kd (nM)
Quick reminder: number only, in nM, skip the unit.

Prompt: Give a short answer stating reported Kd for USH2A-CT (domain or fragment) PSQSQLSHAYSQSSLHRSVSQLMDMADKKVVTEDSLWETIMGHSSGLYVDEEELMNAIKGFSSVTKEHTAFTDTHL .
Completion: 1200
